- Tested on: SNB-19 CNS
- experiment: NCI tumour cell line growth inhibition, 48 h; in the data active means GI50 below about 0.43 µM; inactive means the rest
Allowed answers: active, inactive

Below, 3 compounds whose answers are already recorded.
{"compound": "COc1cc2c(cc1OCCCCCN1CCN(CCCCCOc3cc4c(cc3OC)C(=O)C3CCC[C@H]3C=N4)CC1)N=C[C@@H]1CCCC1C2=O (some centres undefined)", "target or test system": "SNB-19 CNS", "group label": "inactive"}
{"compound": "CCCCCCCC/C(=C\\C1=C(C)C(=O)C(OC)=C(OC)C1=O)C(=O)O", "target or test system": "SNB-19 CNS", "group label": "inactive"}
{"compound": "CCOC(=O)c1cc(C(=O)c2cc(OC)c(OC)c(OC)c2)n2nc(C)ccc12", "target or test system": "SNB-19 CNS", "group label": "active"}

Entry O=C1NC(=NCc2c(Cl)cccc2Cl)S/C1=C\c1ccc2ncccc2c1 : call = ? inactive

From: PubChem BioAssay (NCI)
